TEST_SUMMARY: Maximum tolerated dose of a single intravenous dose
STATED_CONDITIONS: mouse, in vivo, CD2F1 mice, vesicles normalized to the hydrochloride, read-out: maximum tolerated dose (MTD, non-lethal)
Counter-ions that a name gives are not always drawn.
REPORTED_ENDPOINT: MTD

Query :: Entry under review: COc1cccc2c1C(=O)c1c(O)c3c(c(O)c1C2=O)C[C@@](O)(C(=O)CO)C[C@@H]3O[C@H]1C[C@H](N)[C@H](O)[C@H](C)O1 [doxorubicin hydrochloride] . Reported MTD?
Result :: ~25 mg/kg
